test system: IL-1β; assay: PBMC assay: inhibition of IL-1β release after LPS stimulation (MSD); assay type: cell-based; settings: Homo sapiens, PBMC, 6 h, human PBMCs, 100 ng/ml LPS for 6 hrs, MSD, 96 well plates; read-out: IL1β IC50
Please provide measured IC50 for the entries that follow.
Give bare numbers, in nM.

Consider the following illustrative entries.
Cc1cc(NC(=O)Cn2nc(C(C)C)c3cc(C(F)(F)F)ccc3c2=O)cn2ccnc12 [Final Cpd X92] ... 970
CC(C)c1nn(CC(=O)Nc2ccc3cnn(C)c3n2)c(=O)c2ccc(Br)cc12 [X-1005] ... 1470
CC(C)c1nn(CC(=O)N[C@@H]2CCc3nncn3C2)c(=O)c2ccc(C(F)(F)F)cc12 [Final Cpd X106] ... 1610
CC(C)c1nn(CC(=O)N[C@H]2COC[C@H](O)C2)c(=O)c2ccc(C(F)(F)F)cc12 (mixture of isomers) [Final Cpd X148] ... 6320
CC(C)(F)c1nn(CC(=O)Nc2ccnnc2)c(=O)c2ccc(C(F)(F)F)cc12 [Final Cpd X155] ... 7910

Provide each entry's IC50 from the list below.
1. Cc1ncc2ccc(NC(=O)Cn3nc(C(C)C)c4cc(C(F)(F)F)ccc4c3=O)cn12 [Final Cpd X48]
2. O=C(Cn1nc(C(F)F)c2cc(Br)ccc2c1=O)Nc1ccc2nncn2c1 [X-1019]

Response given:
[398, 183]

State recorded IC50 for all listed molecules.
1. CC(=O)c1nn(CC(=O)Nc2ccc3nncn3c2)c(=O)c2ccc(C(F)(F)F)cc12 [Final Cpd X58]
2. CC(C)c1nn(CC(=O)N[C@H]2C[C@@](C)(O)C2)c(=O)c2ccc(N(C)C)cc12 [X-1047]

Response given:
551
1570

Give me IC50 for each of these molecules, listed below.
1. CC(C)c1nn(CC(=O)Nc2cc(Br)c3ncnn3c2)c(=O)c2ccc(C(F)(F)F)cc12 [Final Cpd X132]
2. CC(C)c1nn(CC(=O)Nc2ccc3nccn3n2)c(=O)c2ccc(C(C)(F)F)cc12 [X-1006]
3. C[C@]1(O)C[C@@H](NC(=O)Cn2nc(C(F)F)c3cc(Br)ccc3c2=O)C1 [X-1020]
4. COC(c1nn(CC(=O)Nc2ccc3nncn3c2)c(=O)c2ccc(C(F)(F)F)cc12)C(F)(F)F (stereo not shown) [Final Cpd X135]
5. CC(C)c1nn(CC(=O)Nc2ccncn2)c(=O)c2ccc(Cl)cc12 [X-1028]

Response given:
[3260, 128, 133, 3440, 128]

----------
system: IL-1β; assay: PBMC assay: inhibition of IL-1β release after LPS stimulation (MSD); assay type: cell-based; settings: Homo sapiens, PBMC, 6 h, human PBMCs, 100 ng/ml LPS for 6 hrs, MSD, 96 well plates; read-out: IL1β IC50
Give IC50 for every item shown.
Answers are plain numbers, in nM.

Study these solved cases before continuing.
CC(C)c1nn(CC(=O)Nc2ccncn2)c(=O)c2ccc(C(C)(C)C)cc12 ... 990
CO[C@H]1C[C@H](NC(=O)Cn2nc(C(C)C)c3cc(C(F)(F)F)ccc3c2=O)C1 ... 1520

Give IC50 for each of the items listed below.
1. CC(C)c1nn(CC(=O)NC2CCc3nncn3C2)c(=O)c2ccc(C(F)(F)F)cc12 (centres unmarked)
2. Cn1nc(NC(=O)Cn2nc(C3CC3)c3cc(Cl)ccc3c2=O)ccc1=O
3. CC(C)c1nn(CC(=O)Nc2ccc3nc(C(F)(F)F)cn3c2)c(=O)c2ccc(C(F)(F)F)cc12
4. CCc1nn(CC(=O)N[C@H]2CC[C@H](O)CC2)c(=O)c2ccc(C(F)(F)F)cc12
5. CC(C)c1nn(CC(=O)Nc2ccc3ncn(C)c3n2)c(=O)c2ccc(C(F)(F)F)cc12
6. COc1ccc2c(=O)n(CC(=O)Nc3ccncn3)nc(C(C)C)c2c1

Response given:
[924, 1400, 668, 1290, 394, 2320]

Ref: patent US20230202989A1
